The measured values listed here are drawn from paper PMC9352680.

assay.target: T1, PUF4 RNA-binding domain (Saccharomyces cerevisiae, UniProt P25339 537-888)
T1 sequence: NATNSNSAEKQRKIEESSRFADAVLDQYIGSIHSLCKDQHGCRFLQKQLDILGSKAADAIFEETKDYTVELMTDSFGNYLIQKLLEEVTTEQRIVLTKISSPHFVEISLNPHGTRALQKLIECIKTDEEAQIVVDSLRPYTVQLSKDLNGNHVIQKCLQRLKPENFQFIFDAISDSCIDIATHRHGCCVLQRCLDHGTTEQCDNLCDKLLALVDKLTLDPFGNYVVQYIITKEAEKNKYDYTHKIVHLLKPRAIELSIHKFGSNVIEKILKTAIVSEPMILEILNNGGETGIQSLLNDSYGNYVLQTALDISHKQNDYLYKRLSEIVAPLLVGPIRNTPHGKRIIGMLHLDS
procedure.summary: Mg; RNA-MaP; 20 mM Na-HEPES pH 7.4, 30 mM KOAc, 0.75 mM MgCl2, 0.1% Tween-20, 5% glycerol, 0.1 mg/mL BSA, 2 mM DTT; 25 C; 0.0125-409.6 nM protein
reported.conditions: tags: N-His6-TEV cleaved; C-SNAP kept, Cy3B-labelled; label: tethered on chip by stalled RNA polymerase
reported.metric: Kd (nM)
Give just the number in nM; leave the unit off.

Request: Provide one value: measured Kd of Id_ii_S2_P5E.2_K5.1_C5.2_[C-2T]_H5.1_A5.1_F5.1_T5.2_[T11A]_[A12T] (ssRNA) RNA: UUUGAUUAAUAUGAUAUCGUUCUUUCUUUUGUAUUAUUAAUUUCUUUCUCGAUAUCAUAUUAAUCUUU
Response: 3.17

Request: Answer with the recorded Kd for the binder listed here: Ic_S4_P5E.1_K5.1_C5.1_H5.1_A5.1_[A7C]_F5.1_[T8G]_[A10G]_T5.1 (ssRNA) RNA: UUUGACAACUGAUCGUUCUUUCUUGUAUUCGUGUUCUUUCUCGAUCAGUUGUCUUU
Response: 66.3

Request: Answer with the recorded Kd of UCUCUUUGUACCAAAUCUCUU (ssRNA) [Ic_S1_P4E.1_K4.1_C4.1_H4.1_A4.1_[T5C]_[A6C]_[T7A]_F4.1_[T8A]_T4.1] only.
Response: 68

Request: Give the reported Kd for this binder. UCUCUUUGUACCCUUAUUAUCUCUU (ssRNA) [Ie_S1_P4E.1_K4.1_C4.1_H4.1_[+4CCCT]_A4.1_F4.1_T4.1]
Response: 6.31
